# measurement.protocol: soluble fraction after stress (log2 fold change); higher = more stays soluble; pooled small domains, quantitative proteomics
# experimental.parameters: stress: 50 degC
quantity: soluble fraction (log2)
When you answer, write just the number.

HMSSLSGVRRTLLDSLGMPPDASDEELADRREELRGSLDTAPQARRKWIEQQLARIDAITALDASG :: -0.035
HMNNTIKFSVDENNSGKRLDVYLTENINHLTRSFLKKLIEKEQVKLNKKVLTSPATKVKTKDQITINIIE :: 0.172
HMVISAKRMQDRRDSILDAAREAFARAGFEGTSIADIARRAGVSDGLVYRYFASKRDLLNAVLTA :: -0.83

Query (sequence): HMKAPPLTDREKEILRWVAAGLQNKEIAHKLGISLATVRNHIHNILEKLDVHSKLEAVSLAFRQGWVS ; field requested: soluble fraction (log2)
-0.0741

Query (sequence): HMRTEGNLGAKVRVLRRSQGMTQAELARRLGISPSYLNLIEHNRRSFTADLLVKLAKILPVNLKT ; field requested: soluble fraction (log2)
-1.36

Query (sequence): HMKKQLKSEAVADELRRKILSGGFPDKRLPRKDELTEYFQVSQKTVEAALKMLTAEGLIRGVKGTGIFVNG ; field requested: soluble fraction (log2)
-0.0396

Query (sequence): HMGGPEPIPAQIREGDTVYVTKFKQLGLVLKISEDTAEVQIGPLRATVAKTELSKVDATATEHR ; field requested: soluble fraction (log2)
0.158

Query (sequence): HMLPERIQTIVALIGHGRAMDLVREFGGQEIKFPAQEGNDTWAALVEVIGEAATRKLAAVFGGGQAPPVYI ; field requested: soluble fraction (log2)
-0.778
